assay: Vaccinia stage specific inhibitors, mCherry reporter channel, infected cells, confirmatory dose response (AID 1053207); conditions: Vaccinia-infected cells, mCherry/Venus stage reporter fluorescence; measured here: Venus reporter max activity; at 2.6 µM
readout-name: max activity (%)

| structure-smiles | unit-descriptor | reading |
| --- | --- | --- |
| C[C@@H](O)C#Cc1ccc2c(c1)O[C@@H](CN(C)Cc1ccc(-c3ccccc3Cl)cc1)[C@@H](C)CN([C@@H](C)CO)S2(=O)=O | % | 145 |
| C[C@@H](O)C#Cc1ccc2c(c1)O[C@@H](CN(C)Cc1ccc(-c3ccccc3)cc1)[C@@H](C)CN([C@@H](C)CO)S2(=O)=O | % | 115 |
| Cc1ccccc1-c1ccc(CN(C)C[C@@H]2Oc3cc(C#C[C@@H](C)O)ccc3S(=O)(=O)N([C@@H](C)CO)C[C@@H]2C)cc1 | % | 157 |
| Cc1cccc(-c2ccc(CN(C)C[C@@H]3Oc4cc(C#C[C@@H](C)O)ccc4S(=O)(=O)N([C@@H](C)CO)C[C@@H]3C)cc2)c1 | % | 140 |
